# key: entry, value: inhibition
assay: growth inhibition of WT strain, primary screen, mitochondrial fusion inhibitor project, WT and mutant strains, chemical genetic (AID 1362); conditions: mitochondrial fusion phenotypic screen, mutant strain inhibition; at 10 µM
Screen size: about 190,000 compounds; about 4,000 (2.1%) were called active. This excerpt belongs to a sample that is enriched for actives.

{"compound": "O=C(O)CC/C(=N\\NC(=O)c1ccc(F)cc1)c1ccc(Br)cc1", "inhibition (%)": 7.09}
{"compound": "CCc1nnc(NS(=O)(=O)c2ccc(N=Cc3c(C)[nH]n(-c4ccc(C)cc4)c3=O)cc2)s1", "inhibition (%)": 28.3}
{"compound": "COc1ccccc1/C=N\\Nc1cc(C)nc(-n2nc(C)cc2C)n1", "inhibition (%)": 28.4}
{"compound": "Cc1ccc(-n2[nH]c(C)c(/C=N/N3C(=O)c4cccc5cccc(c45)C3=O)c2=O)cc1", "inhibition (%)": 13}
{"compound": "COc1cccc(/C=N/Nc2cc(C)nc(-c3ccccc3O)n2)c1O", "inhibition (%)": 48.3}
{"compound": "O=c1c2ccccc2nc2n1C1(CCCCC1)Cc1ccccc1-2", "inhibition (%)": 9.31}
{"compound": "O=C(Nc1cccc(O)c1)c1ccc(C(=O)c2ccccc2)o1", "inhibition (%)": 0.34}
{"compound": "COc1cc(Cl)c(C)cc1NC(=O)CSc1nnc(-c2cccnc2)n1Cc1ccco1", "inhibition (%)": 2.3}
{"compound": "COc1cc(SC#N)ccc1N=Cc1c(C)[nH]n(-c2ccc(C)cc2)c1=O", "inhibition (%)": 11.6}
{"compound": "Cc1cc(C)n(-c2nnc(N3CCN(c4ccccc4)CC3)nn2)n1", "inhibition (%)": 10.8}
{"compound": "C/C(=C\\C(=O)c1cccnc1)Nc1ccc(C)c(C)c1", "inhibition (%)": 23}
{"compound": "Cc1cc(=O)oc(C)c1C(=O)NCc1ccc(F)cc1", "inhibition (%)": 16.4}
{"compound": "CN(C)CCOc1ccc(Cl)cc1C(C)(C)C", "inhibition (%)": 4.52}
{"compound": "CC(C(=O)NC1CCCC1)N(c1ccc(Oc2ccccc2)cc1)S(C)(=O)=O (stereo not drawn)", "inhibition (%)": 6.65}
{"compound": "Cc1ccc(S(=O)(=O)CCC(=O)OCc2ccccc2)cc1", "inhibition (%)": 13.9}
{"compound": "COc1cc(CNc2ncn[nH]2)ccc1OCc1ccccc1C", "inhibition (%)": 6.17}
{"compound": "O=C(NNC(=O)C1CCN(c2ncccn2)CC1)c1ccccc1", "inhibition (%)": -13.4}
{"compound": "COc1cc(NS(=O)(=O)c2ccccc2)ccc1-n1nc(C)cc1C", "inhibition (%)": 2.02}
{"compound": "CCC(C)(C)c1ccc(OCC(=O)N(C)C)c(C(C)(C)CC)c1", "inhibition (%)": 14.1}
{"compound": "C/C(=C\\C(=O)c1ccccc1)Nc1cccc(O)c1", "inhibition (%)": 17.2}
{"compound": "O=C(CSc1ncn[nH]1)NCc1ccc2c(c1)OCO2", "inhibition (%)": 6.4}
{"compound": "COc1ccc(NC(=O)c2nc(-n3nc(C)cc3C)ccc2Cl)cc1Cl", "inhibition (%)": -16.9}
{"compound": "CC(=O)c1ccc(Oc2cc(C)nc(-n3nc(C)cc3C)n2)cc1", "inhibition (%)": 8.66}

====

In this section, each of the molecules is paired with its reported inhibition.
test: growth inhibition of WT strain, primary screen, mitochondrial fusion inhibitor project, WT and mutant strains, chemical genetic (AID 1362); conditions: mitochondrial fusion phenotypic screen, mutant strain inhibition; at 10 µM
Screen size: about 190,000 compounds; about 4,000 (2.1%) were called active. What follows is part of a selection rich in actives, with near analogues and random picks from the rest.
resultType: inhibition

{"molecule": "Cc1cc(C)cc(NS(=O)(=O)c2ccc(Oc3ncc(C(F)(F)F)cc3Cl)cc2)c1", "experimentalValue": "23.7%"}
{"molecule": "CC1=CC=CC2=N/C(=N\\S(=O)(=O)c3ccc(F)cc3F)c3ccccc3CN12", "experimentalValue": "-4.27%"}
{"molecule": "CCO[C@H]1OC(C(=O)N2CCCCCCC2)=C[C@@H](c2ccc(C(F)(F)F)cc2)[C@@H]1CCCO", "experimentalValue": "9.51%"}
{"molecule": "Cc1cccc(NC(=S)Nc2ccc3cn[nH]c3c2)c1", "experimentalValue": "-1.45%"}
{"molecule": "O=C(c1ccccc1)c1ccc2nc(N3CCCCC3)c3nncn3c2c1", "experimentalValue": "50.8%"}
{"molecule": "O=C(Nc1ccccc1N1CCCCC1)c1ccc2nccnc2c1", "experimentalValue": "32.9%"}
{"molecule": "Cc1cc(C(C)(C)C)cc(S(=O)(=O)Nc2ccc(C(=O)O)cc2)c1C", "experimentalValue": "10.3%"}
{"molecule": "c1ccc(CC2CCN(c3nc4ccccc4n4cnnc34)CC2)cc1", "experimentalValue": "25.1%"}
{"molecule": "CCN(CC)C(=O)Cn1cc(S(=O)(=O)CC(=O)NCc2ccc3c(c2)OCO3)c2ccccc21", "experimentalValue": "4.73%"}
{"molecule": "CC(O)CNCCOc1cccc(Oc2ccccc2)c1 (stereo unspecified)", "experimentalValue": "17.6%"}
{"molecule": "Cc1cccc(NC(=S)Nc2ccc(Br)cc2)c1", "experimentalValue": "-3.76%"}

====

# inhibition per record follows
assay: growth inhibition of WT strain, primary screen, mitochondrial fusion inhibitor project, WT and mutant strains, chemical genetic (AID 1362); conditions: mitochondrial fusion phenotypic screen, mutant strain inhibition; at 10 µM
Out of some 190,000 compounds screened, about 4,000 (2.1%) were called active. The sample as a whole holds a higher share of actives than the screen did.

{"molecule": "COc1ccc(CC2(CO)CCN(Cc3cnn(C)c3)CC2)cc1", "inhibition [%]": -0.62}
{"molecule": "O=C(CCc1ccccc1)NCc1cccnc1", "inhibition [%]": 17.5}
{"molecule": "O=C(c1cc(Cl)cc(Cl)c1)N1CCC(=O)N(C(COCc2ccccc2)Cc2ccccc2)CC1 (stereo unspecified)", "inhibition [%]": 11.6}
{"molecule": "CC(C)CC(CO)N1CCN(C(=O)c2ccc(Cl)cc2Cl)CCC1=O (stereo unspecified)", "inhibition [%]": 1.82}
{"molecule": "Cc1nnc(SCC(=O)N2c3ccccc3C(C)(c3ccc(Cl)cc3)CC2(C)C)s1 (stereo unspecified)", "inhibition [%]": 10.2}
{"molecule": "Cc1ccc(NC(=S)N(Cc2ccco2)C(C)c2cccs2)cc1 (stereo unspecified)", "inhibition [%]": 51.5}
{"molecule": "Cc1ccc(NC(=S)N(CCCN2CCC(C)CC2)Cc2ccco2)cc1", "inhibition [%]": 13.6}
{"molecule": "CCC(C(=O)Nc1ccc2c(c1)OCCO2)c1ccccc1 (stereo unspecified)", "inhibition [%]": -11.8}
{"molecule": "CN(C)c1ccc(/C=N/NC(=O)C(O)c2ccc(Br)cc2)cc1 (stereo unspecified)", "inhibition [%]": 1.15}
{"molecule": "CCCCc1cc2c(s1)CCCC/C2=N/O", "inhibition [%]": 6.26}
{"molecule": "COC(=O)CCNC(=O)c1ccc2[nH]c(C)c(C)c2c1", "inhibition [%]": -1.22}

====

test: growth inhibition of WT strain, primary screen, mitochondrial fusion inhibitor project, WT and mutant strains, chemical genetic (AID 1362); details: mitochondrial fusion phenotypic screen, mutant strain inhibition; at 10 µM
About 4,000 (2.1%) of roughly 190,000 compounds were called active. The entries come from a sample that favours actives as a whole.

{"compound": "CCc1ccc(OCC(=O)OCC(=O)c2c(N)n(C)c(=O)n(C)c2=O)cc1", "inhibition (%)": -9.86}
{"compound": "COc1cc(CNC2CCCCC2)c(Br)cc1OC1CCCC1", "inhibition (%)": 20.6}
{"compound": "Cc1cc(C)c(OCCN2CC(C)OC(C)C2)c(Br)c1 (stereo unspecified)", "inhibition (%)": 42.5}
{"compound": "CCOC(=O)C1(Cc2cccc(OC)c2)CCN(C(C)CC(C)(C)O)CC1 (stereo unspecified)", "inhibition (%)": 20.1}
{"compound": "CC1CC(C)CN(CCC(=O)Nc2ccc3c(c2)CCC3)C1 (stereo unspecified)", "inhibition (%)": 2.32}
{"compound": "C/C(=N\\NC(=O)c1cccc(N2CCCC2=O)c1)c1ccc(N)cc1", "inhibition (%)": -3.4}
{"compound": "CN(C)C=NC(=O)c1cccn1-c1ncc(C(F)(F)F)cc1Cl", "inhibition (%)": -2.64}
{"compound": "CN(C)CCCN1C(=O)CSC1c1ccc([N+](=O)[O-])cc1 (stereo unspecified)", "inhibition (%)": 1.39}
{"compound": "O=C(/C=C/c1ccc(Cl)cc1)N1CCN(c2ccccc2[N+](=O)[O-])CC1", "inhibition (%)": 39.2}
{"compound": "O=C(COC(=O)c1ccncc1)c1ccccc1", "inhibition (%)": 3}
{"compound": "COc1cccc(CC2(CO)CCCN(Cc3nc(-c4cccs4)oc3C)C2)c1 (stereo unspecified)", "inhibition (%)": 6.17}
